target: RORγ (Homo sapiens, UniProt P51449); test: RORγ Gal4 Reporter Gene Assay; type: cell-based
Sequence (P51449 whole entry, looked up, the tested form may be a part): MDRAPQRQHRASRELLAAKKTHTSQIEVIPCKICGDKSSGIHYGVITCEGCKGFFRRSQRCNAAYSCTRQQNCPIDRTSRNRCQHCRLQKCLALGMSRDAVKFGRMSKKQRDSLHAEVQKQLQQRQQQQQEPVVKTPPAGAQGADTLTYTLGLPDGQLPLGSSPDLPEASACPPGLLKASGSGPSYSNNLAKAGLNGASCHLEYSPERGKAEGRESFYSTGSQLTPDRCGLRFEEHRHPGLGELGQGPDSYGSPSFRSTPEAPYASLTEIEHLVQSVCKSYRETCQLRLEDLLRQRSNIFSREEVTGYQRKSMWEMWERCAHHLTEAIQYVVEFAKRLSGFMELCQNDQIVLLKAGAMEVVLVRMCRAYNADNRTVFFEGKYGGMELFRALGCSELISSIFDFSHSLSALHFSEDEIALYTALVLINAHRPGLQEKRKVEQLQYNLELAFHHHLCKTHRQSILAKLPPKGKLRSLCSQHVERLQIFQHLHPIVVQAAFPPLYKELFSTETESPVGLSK
outcome.measure: pIC50 (REN)

# molecule, measured.result
records = [
    ("CC(C)(C)NS(=O)(=O)c1ccc(-c2sc(C(=O)NC3CCS(=O)(=O)CC3)nc2CC2CCCCC2)cc1C(C)(C)O [6/26]", "6.6/7.7/7.8"),
    ("CC(C)(C)NS(=O)(=O)c1ccc(-c2sc(C(=O)N[C@H]3C[C@H](C(=O)O)C3)nc2CC2CCCCC2)c2c1CCC2 [9/11]", "6.6/8.5/8.5"),
    ("CC(C)(C)NS(=O)(=O)c1ccc(-c2oc(C(=O)NC34CCC(C(=O)O)(CC3)CC4)nc2CC2CCCCC2)c2ccccc12 [100/14]", "5.8/7.9/7.9"),
    ("CC1(c2cc(C(=O)NC3(C#N)CC3)cc(-c3sc(C(=O)NC4CCS(=O)(=O)CC4)nc3CC3CCCCC3)c2)CC1 [10/2]", "6.6/7.3/7.4"),
    ("CC(C)(C)NS(=O)(=O)c1ccc(-c2sc(C(=O)NC3CS(=O)(=O)C3)nc2CC2CCCCC2)c(Cl)c1Cl [15/4]", "7.3/8.7/9.0"),
]

**Query** State the recorded pIC50 (REN) for this entry: CC(C)(C)c1cc(-c2oc(C(N)=O)nc2CC2CCCCC2)cc(C(C)(C)C)c1 [Example 100]
**Result** 6.6/5.8/5.8

**Query** State the recorded pIC50 (REN) for this entry: CC(C)(O)CNC(=O)c1ncc(CC2CCCCC2)c(-c2cc(C(C)(C)C)cc(C(C)(C)C)c2)n1 [Example 207/1]
**Result** 6.0/6.2/6.1
